Each entry below carries its recorded Vmax (apparent, HRP-oxidized DAB).
Biological target: horseradish peroxidase (HRP) (Armoracia rusticana)
Construct: purchased VMSI (Ventana Medical Systems, Inc.) 760-500: 253-4290, 253-4292 and 253-4293
Sequence (P00433 31-338): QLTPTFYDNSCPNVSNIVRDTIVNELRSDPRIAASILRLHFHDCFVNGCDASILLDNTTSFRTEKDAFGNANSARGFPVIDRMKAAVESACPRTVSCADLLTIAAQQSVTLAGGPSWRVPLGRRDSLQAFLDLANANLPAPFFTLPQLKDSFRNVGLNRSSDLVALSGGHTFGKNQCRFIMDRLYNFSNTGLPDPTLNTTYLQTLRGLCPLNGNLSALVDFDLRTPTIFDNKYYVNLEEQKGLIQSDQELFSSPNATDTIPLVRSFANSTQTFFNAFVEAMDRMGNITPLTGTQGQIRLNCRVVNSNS
Experiment: Plate assay: kinetic screening of enhancers of HRP-mediated DAB oxidation (ultraView Detection Kit, OD 455 nm)
Type: biochemical
Conditions: enhancer 10 mM; no enhancer 18.50
Method: The additives were directly added to a well containing the necessary reagents from the ultraView™ Detection Kit (VMSI 760-500: 253-4290, 253-4292 and 253-4293) in 1× Reaction Buffer (VMSI 950-300) and 0.1% fish gelatin. Fish gelatin was used to help disperse the oxidized DAB and inhibit its precipitation from solution. […] The data were graphed, and the apparent maximum velocity (Vmax) was calculated at each additive concentration level.
Respond with the figure and its unit, in that order.

// solved cases for Vmax (apparent, HRP-oxidized DAB) follow
{"Compound": "Cc1c[nH]c(=O)[nH]c1=O", "Vmax (apparent, HRP-oxidized DAB)": "82.00 mOD/min"}
{"Compound": "c1cocn1", "Vmax (apparent, HRP-oxidized DAB)": "24.00 mOD/min"}
{"Compound": "Nc1cc[nH]c(=O)n1", "Vmax (apparent, HRP-oxidized DAB)": "36.00 mOD/min"}
{"Compound": "[O-][n+]1cccnc1 [Pyrimidine-N-oxide]", "Vmax (apparent, HRP-oxidized DAB)": "104.00 mOD/min"}
{"Compound": "OB(O)O", "Vmax (apparent, HRP-oxidized DAB)": "67.47 mOD/min"}
{"Compound": "Oc1ncccn1 [2-Hydroxypyrimidine]", "Vmax (apparent, HRP-oxidized DAB)": "144.00 mOD/min"}
{"Compound": "N[C@@H](Cc1c[nH]cn1)C(=O)O", "Vmax (apparent, HRP-oxidized DAB)": "21.84 mOD/min"}
{"Compound": "O=C1CC(=O)NC(=S)N1", "Vmax (apparent, HRP-oxidized DAB)": "54.00 mOD/min"}

q: For the compound c1cscn1 , report Vmax (apparent, HRP-oxidized DAB).
a: 66.40 mOD/min

q: Look up Vmax (apparent, HRP-oxidized DAB) of N[C@@H](Cc1c[nH]c2ccccc12)C(=O)O and report it.
a: 30.00 mOD/min

q: Answer with the recorded Vmax (apparent, HRP-oxidized DAB) of CC(=O)Nc1ccc(B(O)O)cc1 only.
a: 32.80 mOD/min
